system-tested: EGFR Del19/T790M/C797S (H1975-clone #28) (Homo sapiens, UniProt P00533, T790M/C797S, form not given)
Sequence (P00533 with tags, fused parts or gaps DEL746-750/T790M/C797S, form open): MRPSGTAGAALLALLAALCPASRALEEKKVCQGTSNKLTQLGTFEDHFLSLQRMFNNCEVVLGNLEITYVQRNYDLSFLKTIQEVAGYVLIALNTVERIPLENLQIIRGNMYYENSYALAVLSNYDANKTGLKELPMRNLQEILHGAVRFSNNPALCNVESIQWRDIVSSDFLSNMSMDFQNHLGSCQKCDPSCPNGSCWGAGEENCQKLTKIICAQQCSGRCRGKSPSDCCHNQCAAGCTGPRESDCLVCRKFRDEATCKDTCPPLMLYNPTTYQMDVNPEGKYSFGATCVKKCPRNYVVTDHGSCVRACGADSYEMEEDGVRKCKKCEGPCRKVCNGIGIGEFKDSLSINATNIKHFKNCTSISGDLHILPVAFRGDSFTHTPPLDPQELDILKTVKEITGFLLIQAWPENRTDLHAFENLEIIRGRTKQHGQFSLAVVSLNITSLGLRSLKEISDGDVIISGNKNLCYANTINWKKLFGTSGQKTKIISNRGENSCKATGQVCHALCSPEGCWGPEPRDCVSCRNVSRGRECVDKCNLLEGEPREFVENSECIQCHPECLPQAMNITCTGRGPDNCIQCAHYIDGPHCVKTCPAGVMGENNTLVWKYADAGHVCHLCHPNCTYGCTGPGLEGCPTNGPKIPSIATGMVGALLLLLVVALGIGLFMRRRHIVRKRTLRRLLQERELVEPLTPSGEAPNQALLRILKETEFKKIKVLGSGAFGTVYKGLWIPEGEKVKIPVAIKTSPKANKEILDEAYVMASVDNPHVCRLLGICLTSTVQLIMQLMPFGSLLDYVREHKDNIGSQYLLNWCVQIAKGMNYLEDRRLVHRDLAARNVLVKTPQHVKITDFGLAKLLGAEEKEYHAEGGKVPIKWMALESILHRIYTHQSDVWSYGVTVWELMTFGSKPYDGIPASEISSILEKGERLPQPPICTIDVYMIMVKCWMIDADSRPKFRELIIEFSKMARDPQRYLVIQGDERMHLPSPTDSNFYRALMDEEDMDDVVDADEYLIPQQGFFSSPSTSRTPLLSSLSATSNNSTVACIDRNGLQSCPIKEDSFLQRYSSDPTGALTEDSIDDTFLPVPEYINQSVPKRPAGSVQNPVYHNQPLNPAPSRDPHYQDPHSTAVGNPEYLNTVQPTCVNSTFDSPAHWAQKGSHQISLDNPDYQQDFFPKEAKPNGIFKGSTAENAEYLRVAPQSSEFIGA
protocol-summary: EGFR degradation, HTRF total-EGFR assay, H1975-clone #28 (DTC)
Format: cell-based
condition-notes: H1975-clone #28 Del19/T790M/C797S, 16 h treatment
Overview of recorded Degradation H1975 # 28 DTC for various molecules

Provide Degradation H1975 # 28 DTC value for the following molecule: Cc1cc2cc(n1)-c1cnn(C)c1OC[C@H]1C[C@@H](CN3/C(=N/C2=O)Nc2ccc(N4CCN(C5CN(C6CCN(c7cnc(C8CCC(=O)NC8=O)cc7C)CC6)C5)CC4)cc23)C1 (some centres unmarked) [Example 131]
68.0

Provide Degradation H1975 # 28 DTC value for the following molecule: Cc1cc2cc(n1)-c1cnn(C)c1OC[C@H]1C[C@@H](CN3/C(=N/C2=O)Nc2ccc(N4CCN([C@@H]5CCN(c6cnc(C7CCC(=O)NC7=O)cc6C)C[C@H]5F)CC4)cc23)C1 (some centres unmarked) [Example 138]
90.9

Provide Degradation H1975 # 28 DTC value for the following molecule: Cc1cc2cc(n1)-c1cnn(C)c1OC[C@H]1C[C@@H](CN3/C(=N/C2=O)Nc2ccc(N4CCN(C5CCN(c6ccc(C7CCC(=O)NC7=O)nc6)CC5)C[C@H]4C)cc23)C1 (some centres unmarked) [Example 7]
80.6

Provide Degradation H1975 # 28 DTC value for the following molecule: Cc1cc2cc(n1)-c1cnn(C)c1OC[C@H]1C[C@@H](CN3/C(=N/C2=O)Nc2ccc(N(C)C4CN(C5CCN(c6cnc(C7CCC(=O)NC7=O)cc6C)CC5)C4)cc23)C1 (some centres unmarked) [Example 41]
80.1

Provide Degradation H1975 # 28 DTC value for the following molecule: Cc1cc2cc(n1)-c1cnn(C)c1OC[C@H]1C[C@@H](CN3/C(=N/C2=O)Nc2ccc(N4CCN(C5CCN(c6ccc(C7CCC(=O)NC7=O)nc6C)CC5)CC4)cc23)C1 (some centres unmarked) [Example 21]
91.5
